# test: Pharmacokinetics of flumatinib and M1 in SD rats with or without isavuconazole
# Format: in vivo, Sprague-Dawley male rats
# test.context: male, Sprague-Dawley, rat, plasma, po, 60 mg/kg, group A: 60 mg/kg flumatinib dosed orally alone, read-out: MRT0→t
# Lookup of reported MRT last keyed by entry

>  <molecule.smiles>
Cc1ncc(NC(=O)c2ccc(CN3CCN(C)CC3)c(C(F)(F)F)c2)cc1Nc1nccc(-c2cccnc2)n1

>  <unit.label>
h

>  <MRT last>
6.82

$$$$
>  <molecule.smiles>
Cc1ncc(NC(=O)c2ccc(CN3CCNCC3)c(C(F)(F)F)c2)cc1Nc1nccc(-c2cccnc2)n1

>  <unit.label>
h

>  <MRT last>
6.73

$$$$

###

Listed here: items and their measured AUC(0-inf).
# test: Pharmacokinetics of flumatinib and M1 in SD rats with or without isavuconazole
# Format: in vivo, Sprague-Dawley male rats
# test.context: male, Sprague-Dawley, rat, plasma, po, 60 mg/kg, group B: 20 mg/kg isavuconazole and 60 mg/kg flumatinib dosed orally

>  <molecule.smiles>
Cc1ncc(NC(=O)c2ccc(CN3CCN(C)CC3)c(C(F)(F)F)c2)cc1Nc1nccc(-c2cccnc2)n1

>  <AUC(0-inf), µg·h/mL>
5.71

$$$$
>  <molecule.smiles>
Cc1ncc(NC(=O)c2ccc(CN3CCNCC3)c(C(F)(F)F)c2)cc1Nc1nccc(-c2cccnc2)n1

>  <AUC(0-inf), µg·h/mL>
0.395

$$$$

###

Documented Tmax across a set of molecules
# test: Pharmacokinetics of flumatinib and M1 in SD rats with or without isavuconazole
# Assay type: in vivo, Sprague-Dawley male rats
# test.context: male, Sprague-Dawley, rat, plasma, po, 60 mg/kg, group B: 20 mg/kg isavuconazole and 60 mg/kg flumatinib dosed orally

>  <molecule.smiles>
Cc1ncc(NC(=O)c2ccc(CN3CCN(C)CC3)c(C(F)(F)F)c2)cc1Nc1nccc(-c2cccnc2)n1

>  <Tmax (h)>
4.4

$$$$
>  <molecule.smiles>
Cc1ncc(NC(=O)c2ccc(CN3CCNCC3)c(C(F)(F)F)c2)cc1Nc1nccc(-c2cccnc2)n1

>  <Tmax (h)>
5

$$$$

###

# test: Pharmacokinetics of flumatinib and M1 in SD rats with or without isavuconazole
# Assay type: in vivo, Sprague-Dawley male rats
# test.context: male, Sprague-Dawley, rat, plasma, po, 60 mg/kg, group B: 20 mg/kg isavuconazole and 60 mg/kg flumatinib dosed orally, read-out: CLz/F (converted)
measurement.label: CL/F (mL/min/kg)

>  <molecule>
Cc1ncc(NC(=O)c2ccc(CN3CCNCC3)c(C(F)(F)F)c2)cc1Nc1nccc(-c2cccnc2)n1 [M1, N-desmethyl flumatinib]

>  <measurement.label>
CL/F

>  <recorded.number>
2580

$$$$
>  <molecule>
Cc1ncc(NC(=O)c2ccc(CN3CCN(C)CC3)c(C(F)(F)F)c2)cc1Nc1nccc(-c2cccnc2)n1 [flumatinib]

>  <measurement.label>
CL/F

>  <recorded.number>
177

$$$$

###

# Test system: flumatinib metabolism in RLM
# test: Inhibition of flumatinib metabolism in rat liver microsome incubation (UPLC-MS/MS)
# test.context: rat, rat liver microsomes, probe flumatinib (2.17 µM in RLM, at Km)
Below is a list of entries, each paired with its recorded IC50 at 40 min value.

>  <compound>
OC(Cn1cncn1)(Cn1cncn1)c1ccc(F)cc1F [fluconazole]

>  <target>
flumatinib metabolism in RLM

>  <unit.label>
µM

>  <IC50 at 40 min>
24.8

$$$$
>  <compound>
CCC(C)n1ncn(-c2ccc(N3CCN(c4ccc(OCC5COC(Cn6cncn6)(c6ccc(Cl)cc6Cl)O5)cc4)CC3)cc2)c1=O (stereo not shown) [itraconazole]

>  <target>
flumatinib metabolism in RLM

>  <unit.label>
µM

>  <IC50 at 40 min>
1.06

$$$$
>  <compound>
CC[C@@H]([C@H](C)O)n1ncn(-c2ccc(N3CCN(c4ccc(OC[C@@H]5CO[C@@](Cn6cncn6)(c6ccc(F)cc6F)C5)cc4)CC3)cc2)c1=O [posaconazole]

>  <target>
flumatinib metabolism in RLM

>  <unit.label>
µM

>  <IC50 at 40 min>
1.53

$$$$
>  <compound>
C[C@@H](c1ncncc1F)[C@](O)(Cn1cncn1)c1ccc(F)cc1F [voriconazole]

>  <target>
flumatinib metabolism in RLM

>  <unit.label>
µM

>  <IC50 at 40 min>
12.4

$$$$
